Provenance of the data: ChEMBL document CHEMBL1151757

system: Caudate; assay: Drug uptake in anesthetized cynomolgus monkey brain caudate after 155 mins postinjection; assay type: ADME, organism-based, Macaca fascicularis, Caudate nucleus; conditions: in vivo
READOUT_TYPE: Drug uptake

| COMPOUND | MEASURED_VALUE |
| --- | --- |
| O=C(OCC[18F])C1C2CCC(CC1c1cccc(/C=C\I)c1)N2 (stereo not given) | 2.62 |
| O=C(OCC[18F])C1C2CCC(CC1c1ccc(/C=C\I)cc1)N2 (stereo not given) | 3.03 |
| O=C(OCCC[18F])C1C2CCC(CC1c1cccc(/C=C\I)c1)N2 (stereo not given) | 3.19 |
| O=C(OCC[18F])C1C2CCC(CC1c1cccc(/C=C\Br)c1)N2 (stereo not given) | 3.47 |
| O=C(OCCC[18F])C1C2CCC(CC1c1cccc(/C=C\Br)c1)N2 (stereo not given) | 4.18 |
